- targetOfAssay: récepteurs β1 de l'oreillette gauche de cobaye (Cavia porcellus)
- Construct: l'oreillette gauche de cobaye stimulée électriquement; from tissue; host or cells: guinea pig left atrium, electrically stimulated
- Sequence (H0W3H1 1-470): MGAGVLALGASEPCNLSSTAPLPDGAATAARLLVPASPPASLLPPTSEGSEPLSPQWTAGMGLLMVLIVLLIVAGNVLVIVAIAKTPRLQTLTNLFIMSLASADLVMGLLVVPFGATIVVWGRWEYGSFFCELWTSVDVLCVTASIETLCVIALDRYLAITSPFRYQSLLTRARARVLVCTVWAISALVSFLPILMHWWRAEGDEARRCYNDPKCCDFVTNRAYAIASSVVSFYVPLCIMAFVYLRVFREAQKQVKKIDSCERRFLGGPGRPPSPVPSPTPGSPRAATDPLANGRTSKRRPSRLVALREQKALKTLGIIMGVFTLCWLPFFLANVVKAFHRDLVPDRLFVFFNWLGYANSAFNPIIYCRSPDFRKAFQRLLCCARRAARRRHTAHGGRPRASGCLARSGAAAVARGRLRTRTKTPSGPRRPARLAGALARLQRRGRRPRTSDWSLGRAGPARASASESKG
- procedureDetails: Antagonism of the positive inotropic effect of isoprenaline on electrically stimulated isolated left atrium
- conditionParameters: β1; antagonism of isoprenaline, guinea-pig left atrium; read-out: pA2 (converted)
measure: Kb

> print(dat)
                                   compound  reportedvalue
1  C[C@@H]([C@H](O)c1ccc2c(c1)oc(=O)n2C)N1CCC(Cc2ccccc2)CC1 (relative stereo) [compound 29]        2.95 µM
2  NCC(O)c1ccc2[nH]c(=O)oc2c1 (stereo not shown) [compound 16]        6.31 µM
3  C[C@@H]([C@H](O)c1ccc2c(c1)oc(=O)n2C)N1CCN(c2ccc(F)cc2)CC1 (relative stereo) [compound 28]        6.17 µM
4  COc1ccccc1N1CCN(CC(O)c2ccc3c(c2)oc(=O)n3C)CC1 (stereo not shown) [compound 22]        2.82 µM
